Experimental Protocol: qHTS profiling of the MIPE4 collection as inhibitors of Plasmodium falciparum (DD2) proliferation (Rep 2) (AID 743346)
Experimental Parameters: P. falciparum Dd2 in erythrocytes, SYBR Green DNA, 72 h; at 28.5 µM unless noted
Please respond with reported parasite growth, % of control (lower = inhibition) for every item in the list.
Give bare numbers, in %.

1) COc1ccc(CCN2CCN(CCCc3ccccc3)CC2)cc1OC : 30
2) O=C(Nc1nc2ccccc2n1CCN1CCOCC1)c1cccc([N+](=O)[O-])c1 : 17.9
3) C[C@]1(c2nc3c(C(N)=O)cccc3[nH]2)CCCN1 : 85.5
4) CCCS(=O)(=O)Nc1ccc(F)c(C(=O)c2c[nH]c3ncc(Cl)cc23)c1F : 80.8
5) COc1ccc(CC2=NN3C([C@@H](CCc4ccccc4)[C@@H](C)O)=NC(C)C3C(=O)N2)cc1OC (stereo not given in full) : 46.9
6) CC(C)NCC(O)COc1ccc(COCCOC(C)C)cc1 (stereo not given) : 98

For each listed entry, give its parasite growth, % of control (lower = inhibition).
1. Nc1nc2ccc(OC(F)(F)F)cc2s1
2. NS(=O)(=O)c1cc2c(cc1Cl)NC=NS2(=O)=O

Given back:
1. 33.2
2. 125

Values were extracted from PubChem BioAssay (NCATS).
